read-out: Monocyte Chemoattractant Protein-1 (MCP1), CCL2 (gene 6347); test: BSK_CASM3C_MCP1: BioMAP Diversity Plus: CASM3C Assay for Monocyte Chemoattractant Protein-1 (MCP1) Biomarker Activity (AID 2283046); details: primary human coronary artery smooth muscle cells; actives raise or lower the signal;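 further: MCP-1 level quantified by ELISA 24 h after dosing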
Calls of active or inactive are those of the source. How the source made its calls: active means hit-call score of the fitted dose curve at least 0.9, where 1 is the maximum; inactive means score below 0.9.
Assign a class; possible classes are active, inactive

query: I'd appreciate the recorded outcome for `O=C(N[C@H](c1ccccc1)[C@@H]1CN2CCC1CC2)c1c(Cl)ccc(C(F)(F)F)c1Cl` from this test.
result: inactive

query: Also check `Clc1ccc(C(c2ccc(Cl)cc2)C(Cl)(Cl)Cl)cc1`
result: active

query: Next molecule up: `CC(C)(C)OOC(=O)c1ccccc1`
result: inactive

query: Proceed to `ClCCOCCCl`
result: inactive

query: Subsequent entry: CC(C)(C)C(O)(CCc1ccc(Cl)cc1)Cn1cncn1 (stereo not drawn)
result: inactive

* * *

Read-out: ABC Transporter (ABCC2), ABCC2 (gene 1244)
Test: LTEA_HepaRG_ABCC2: Life Technologies and Expression Analysis (LTEA) Assay for ABC Transporter (ABCC2) using HepaRG (AID 2283464)
Conditions: mRNA level, 48 h; actives raise or lower the signal
Method: LTEA_HepaRG is a cell based, multiplexed-readout assay that uses HepaRG, a human liver cell line, with measurements taken at 48 hours after chemical dosing on a 96-well plate.LTEA_HepaRG_ABCC2 is one of 102 assay component(s) measured in the LTEA HepaRG cell culture assay. It is a marker of Steatosis/NR mediated transport.Data from the assay component LTEA_HepaRG_ABCC2 was analyzed into 1 endpoint. […]
Calls of active or inactive are those of the source. Rule for the calls: active = hit-call score of the fitted dose curve at least 0.9, where 1 is the maximum; inactive = score below 0.9.
quantity_kind: AC50

molecule	AC50
CN(C)C(=O)Nc1ccc(Cl)cc1	inactive
C1=Cc2cccc3cccc1c23	inactive
Cc1ccc(N)c(N)c1	inactive
Cn1cc(-c2ccccc2)c(=O)c(-c2cccc(C(F)(F)F)c2)c1	5.1 µM (active)

query: Data request, read-out AC50, for C[N+](C)(C)CC1CO1 (centres undefined)
result: inactive

query: Next: `CO[C@@H]1[C@H](OC(=O)NC(=O)CCl)CC[C@]2(CO2)[C@H]1[C@@]1(C)O[C@@H]1CC=C(C)C`
result: inactive

query: # iterate: `CCCCCCCCn1sccc1=O`
result: inactive

query: How about `Nc1ccc(N=Nc2ccccc2)cc1` ?
result: 13.2 µM (active)

* * *

experiment: BSK_3C_uPAR: BioMAP Diversity Plus: 3C Assay for Urokinase-type plasminogen activator receptor (uPAR) Biomarker Activity (AID 2282998); conditions: BioMAP 3C HUVEC, uPAR biomarker ELISA; actives raise or lower the signal
The source made the active and inactive calls. The calls were made as follows: active = hit-call score of the fitted dose curve at least 0.9, where 1 is the maximum; inactive = score below 0.9.
Mark one answer only. Choices: 1 = active, 0 = inactive

molecule	classification
CC(O)CCO (stereo not drawn)	0

query: Recorded call for `[As]#[In]` ?
result: 0

query: Proceed to `CCC[CH2][Sn]([Cl])([CH2]CCC)[CH2]CCC`
result: 1

query: Same for CCOc1cccc(C2(N3CCN(c4ccccc4)CC3)CCC(C)CC2)c1 (stereo not drawn)
result: 0

query: Would you kindly repeat that for `O=C(N[C@H](c1ccccc1)[C@@H]1CN2CCC1CC2)c1c(Cl)ccc(C(F)(F)F)c1Cl` ?
result: 1

query: What do you get for `ClC1=C(Cl)[C@]2(Cl)[C@H]3[C@H]([C@@H]4C=C[C@H]3C4)[C@@]1(Cl)C2(Cl)Cl` ?
result: 1

query: Entry `Nc1ccc([N+](=O)[O-])cc1` please
result: 0

query: // next record `CC(C)(O)c1cnn2c(-c3ccc(F)c(-c4c(F)cccc4C#N)c3)cnc2n1`
result: 1

query: Then `CCCCOC(=O)c1ccccc1C(=O)OCc1ccccc1` ?
result: 0

query: // query: `CN(C)c1ccccc1`
result: 0

query: Then what about the molecule `Brc1ccc(Oc2ccccc2)cc1` ?
result: 0

query: `O=C1CCCO1` , same question.
result: 0

query: Param item: `Cc1ccc(N)cc1`
result: 0

The origin of these recorded values is PubChem BioAssay (EPA / NIEHS).
